Where do these numbers come from? They come from paper PMC9352680.

Target: T1, PUF4 RNA-binding domain (Saccharomyces cerevisiae, UniProt P25339 537-888)
T1 sequence: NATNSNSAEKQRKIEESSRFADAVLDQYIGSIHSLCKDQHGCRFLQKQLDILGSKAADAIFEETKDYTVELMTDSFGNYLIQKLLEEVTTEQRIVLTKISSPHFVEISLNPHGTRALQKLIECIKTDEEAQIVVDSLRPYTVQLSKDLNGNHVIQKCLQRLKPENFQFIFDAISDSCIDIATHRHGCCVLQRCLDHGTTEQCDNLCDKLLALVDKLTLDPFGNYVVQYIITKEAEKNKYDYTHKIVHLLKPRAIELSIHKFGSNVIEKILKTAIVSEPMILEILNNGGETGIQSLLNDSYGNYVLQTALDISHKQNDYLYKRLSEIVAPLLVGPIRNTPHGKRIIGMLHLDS
Assay: Mg; RNA-MaP; 20 mM Na-HEPES pH 7.4, 30 mM KOAc, 0.75 mM MgCl2, 0.1% Tween-20, 5% glycerol, 0.1 mg/mL BSA, 2 mM DTT; 25 C; 0.0125-409.6 nM protein
Details: tags: N-His6-TEV cleaved; C-SNAP kept, Cy3B-labelled; label: tethered on chip by stalled RNA polymerase
readout-name: pKd
API: returns pKd as number; meaning -log10 of concentration in mol/L.

The examples below pair each entry with its known result.
* Id_ii_S2_P3E.2_K3.1_C3.2_[T-1G]_H3.1_A3.1_F3.1_T3.2_[A10T] (ssRNA) RNA: UUUGAUUAAUAUGAUAUCGUUCUUUCUCGUGUAUAUAUUUUCUUUCUCGAUAUCAUAUUAAUCUUU | 8.86
* Ib_S2_P4E.1_K4.1_C4.1_H4.1_[G2A]_[T3C]_A4.1_F4.1_T4.1 (ssRNA) RNA: UUUGAUUAAUAUGAUAUCGUUCUUUCUUACAUAUUAUUCUUUCUCGAUAUCAUAUUAAUCUUU | 5.85

Q: Identify measured pKd associated with UCUCUUUGUAUAAACGUCUCUU (ssRNA) [Ic_S1_P5E.1_K5.1_C5.1_H5.1_A5.1_[T6A]_F5.1_[T8A]_[T9C]_[A10G]_T5.1]
Result: 6.42

Q: Give the reported pKd for this binder. UCUCUUUGUAUAUUAUCUCUU (ssRNA) [Ic_S1_P4E.1_K4.1_C4.1_H4.1_A4.1_F4.1_T4.1]
Result: 9.24

Q: Identify pKd associated with the binder Ic_S2_P5E.1_K5.1_C5.1_H5.1_A5.1_[T6A]_[A7T]_F5.1_[T8A]_[T9C]_[A10G]_T5.1 (ssRNA) RNA: UUUGAUUAAUAUGAUAUCGUUCUUUCUUGUAUAUACGUUCUUUCUCGAUAUCAUAUUAAUCUUU
Result: 8.07
